Values were extracted from patent US9637473B2.

system: P. Falciparum NF54; assay: Plasmodium falciparum in vitro assay ([3H]-hypoxanthine incorporation); assay type: cell-based; conditions: Plasmodium falciparum, Erythrocyte, P. Falciparum NF54, erythrocytic stages in human red blood cells, 50% human serum
pIC50: −log10 of the molar value. Structures can show the parent of a compound that is named as a salt.
property: pIC50

{"molecule": "Cc1cc(Nc2ccc(CN(C(=O)/C=C/c3ccc(C(F)(F)F)cc3)C3CCN(Cc4cnc(C)nc4)CC3)cc2)ccn1", "reported-result": 6.57}
{"molecule": "CN(c1ccncc1)c1ccc(CN(C(=O)/C=C/c2ccc(C(F)(F)F)cc2)C2CCN(C3CCCC3)C2)cc1 (racemic)", "reported-result": 7.37}
{"molecule": "CC(C)CCN1CCC(N(Cc2ccc(N(C)c3ccncc3)cc2)C(=O)/C=C/c2ccc(C(F)(F)F)cc2)CC1", "reported-result": 7.37}
{"molecule": "Cc1cc(Nc2ccc(CN(C(=O)/C=C/c3ccc(C(F)(F)F)cc3)C3CCN(Cc4coc(C)n4)CC3)cc2)ccn1", "reported-result": 6.84}
{"molecule": "Cc1cc(N(C)c2cncc(CN(C(=O)/C=C/c3ccc(C(F)(F)F)cc3)C3CCN(C(C)C)CC3)c2)ccn1 [Example 135, formate]", "reported-result": 7.08}
{"molecule": "CN(c1ccncc1)c1ccc(CN(C(=O)/C=C/c2ccc(C(F)(F)F)cc2)[C@@H]2CCN(C3CCCC3)C2)cc1", "reported-result": 7.11}
{"molecule": "CN(c1ccncc1)c1ccc(CN(C(=O)/C=C/c2ccc(C(F)(F)F)cc2)C2CCN(Cc3ncccn3)CC2)cc1", "reported-result": 6.53}
